System: Lewis lung carcinoma (LLC)
Test: proliferation inhibiting effect in explantation (LLC)
Format: cell-based
Conditions: 72 h, 3 days culture with compound, living cells by dye-exclusion (tripan blue)
Metric: IC50 (µg/mL)

Test Smiles | Recorded Result
C[Si](C)(C)CCSCCNC(=O)c1cccnc1 | 5
C[Si](C)(C)CCSCCNC(=O)c1ccccc1 | 4.3
C[Si](C)(C)CCSCCNC(=O)c1ccco1 | 9
Cc1ccc(S(=O)(=O)NCCSCC[Si](C)(C)C)cc1 | 14
C[Si](C)(C)CCSCCNC(=O)c1cccc2ccccc12 | 13

###

Test: acute toxicity
Conditions: mouse, in vivo, ip; ICR female mice; abdominal dosage; observed 7 days; read-out: Acute Toxicity LD50, Abdominal Dosage
The following molecules are listed with their measured LD50 at 168 h values.

Molecule | LD50 at 168 h
C[Si](C)(C)CCSCCNC(=O)c1ccccc1 [SKK-012] | 1190 mg/kg
C[Si](C)(C)CCSCCNC(=O)c1cccnc1 [SKK-021] | < 500 mg/kg
Cc1ccc(S(=O)(=O)NCCSCC[Si](C)(C)C)cc1 [SKK-028] | > 2500 mg/kg
C[Si](C)(C)CCSCCNC(=O)c1cccc2ccccc12 [SKK-024] | > 2000 mg/kg
C[Si](C)(C)CCSCCNC(=O)c1ccco1 [SKK-022] | < 1000 mg/kg
C[Si](C)(C)CCSCCNC1CCCCC1 [SKK-010] | 152 mg/kg
CC(=O)NCCSCC[Si](C)(C)C [SKK-025] | ~100 mg/kg
C[Si](C)(C)CCSCCNC(=O)C1CCCCC1 [SKK-026] | 500 to 1000 mg/kg
C=CCNCCSCC[Si](C)(C)C [SKK-011] | 134 mg/kg
C[Si](C)(C)CCSCCNC(=O)c1cccs1 [SKK-023] | > 1000 mg/kg
CCCCCCCC(=O)NCCSCC[Si](C)(C)C [SKK-027] | 2000 to 3000 mg/kg
CNCCSCC[Si](C)(C)C [SKK-009] | 189 mg/kg
